The measurements presented in this section are drawn from patent US20170001988A1.

Test system: HCV-Luc
assay_summary: HCV-Luc infection assay
Format: cell-based
experimental_setup: Hepatitis C virus; Table 6; read-out: EC50
experimental_readout: EC50

Answered cases to consult:
structure_smiles: CCN1CCC(N(CCc2ccccc2)Cc2ccccc2)CC1
experimental_readout: EC50
experimental_result: 0.039 µM

structure_smiles: Brc1ccc(CN2CCC(N(CCc3ccccc3)Cc3ccccc3)CC2)cc1
experimental_readout: EC50
experimental_result: 4.33 µM

structure_smiles: CC(C)CN1CCC(N(CCc2ccccc2)Cc2ccccc2)CC1
experimental_readout: EC50
experimental_result: 4.76 µM

structure_smiles: Clc1ccc(CN2CCC(N(CCc3ccccc3)Cc3ccccc3)CC2)cc1
experimental_readout: EC50
experimental_result: 9.24 µM

Dear colleague, could you please provide EC50 for the compounds listed below?
1. FC(F)(F)CN1CCC(N(CCc2ccccc2)Cc2ccccc2)CC1
2. Ic1ccc(CN2CCC(N(CCc3ccccc3)Cc3ccccc3)CC2)cc1
3. COC(=O)c1ccc(CN2CCC(N(CCc3ccccc3)Cc3ccccc3)CC2)cc1

Completion:
> 31.6 µM
2.98 µM
14 µM

The following compounds each have a reported value; give each one's EC50.
1. N#Cc1ccc(CN2CCC(N(CCc3ccccc3)Cc3ccccc3)CC2)cc1
2. O=C(c1ccccc1)N1CCC(N(CCc2ccccc2)Cc2ccccc2)CC1

Completion:
1: 5.86 µM; 2: 24.8 µM

###

Tested on: HCV-Luc
assay_summary: HCV-Luc infection assay
Assay type: cell-based
experimental_setup: Hepatitis C virus; Table 6; read-out: EC50
experimental_readout: EC50

Please review the following examples before continuing.
compound: c1ccc(CCN2CCC(N(CCc3ccccc3)Cc3ccccc3)CC2)cc1 [2-Phenylethyl]
EC50: 16.2 µM

compound: c1ccc(CCN(Cc2ccccc2)C2CCN(Cc3ccc4c(c3)OCCO4)CC2)cc1
EC50: 2.78 µM

compound: Cc1ccc(CN2CCC(N(CCc3ccccc3)Cc3ccccc3)CC2)cc1 [4-Methylbenzyl]
EC50: 0.74 µM

The record that follows has no EC50 shown yet.
Prompt: Consider the compound O=[S+]([O-])(c1ccccc1)N1CCC(N(CCc2ccccc2)Cc2ccccc2)CC1 [Phenylsulfonyl] and give its measured EC50.
Completion: > 32.6 µM

###

Could you please report measured EC50 for the items listed next?
Test system: HCV-Luc
assay_summary: HCV-Luc infection assay
Format: cell-based
experimental_setup: Hepatitis C virus; Table 3; read-out: EC50
Answers are plain numbers, in nM.

Examples from the recorded data:
compound: OCCOCCN1CCN(C(c2ccccc2)c2ccc(Cl)cc2)CC1 (racemic) [CH2CH2OCH2CH2OH (R,S)]
EC50, nM: 32
//
compound: CC(C)N1CCN([C@@H](c2ccccc2)c2ccc(Cl)cc2)CC1 [i-Pr (S)]
EC50, nM: 13
//
compound: Clc1ccc([C@H](c2ccccc2)N2CCN(C3CCCC3)CC2)cc1 [Cyclopentyl (S)]
EC50, nM: 19
//
compound: Clc1ccc([C@H](c2ccccc2)N2CCNCC2)cc1 [H (S)]
EC50, nM: 34
//
compound: CCCN1CCN([C@@H](c2ccccc2)c2ccc(Cl)cc2)CC1 [n-Pr (S)]
EC50, nM: 32
//
compound: CN1CCN(C(c2ccccc2)c2ccc(Cl)cc2)CC1 (racemic) [racemic CCZ, reference compound]
EC50, nM: 44
//
compound: NCCOCCOCCOCCOCCN1CCN(C(c2ccccc2)c2ccc(Cl)cc2)CC1 (racemic) [(CH2CH2O)4CH2CH2NH2 (R,S)]
EC50, nM: 4
//
compound: CN1CCN([C@@H](c2ccccc2)c2ccc(Cl)cc2)CC1 [(S)-CCZ]
EC50, nM: 24

Hey, quick one: what's EC50 for each of these?
1. CCCCN1CCN([C@@H](c2ccccc2)c2ccc(Cl)cc2)CC1 [n-Bu (S)]
2. O=C1c2ccccc2C(=O)N1CCOCCN1CCN(C(c2ccccc2)c2ccc(Cl)cc2)CC1 (centres unmarked)
3. NCCOCCN1CCN(C(c2ccccc2)c2ccc(Cl)cc2)CC1 (racemic) [CH2CH2OCH2CH2NH2 (R,S)]
4. CCCN1CCN([C@H](c2ccccc2)c2ccc(Cl)cc2)CC1 [n-Pr (R)]
5. CC(C)CN1CCN([C@H](c2ccccc2)c2ccc(Cl)cc2)CC1 [2-methyl-1-propyl (R)]
6. CC(C)CN1CCN([C@@H](c2ccccc2)c2ccc(Cl)cc2)CC1 [2-methyl-1-propyl (S)]

Completion:
[42, 1540, 4.8, 24, 232, 102]

Prompt: Could you share which EC50 value was measured for [2H]C([2H])([2H])N1CCN([C@H](c2ccccc2)c2ccc(Cl)cc2)CC1 [CD3 (R)] ?
Completion: 40
